Listed here are variants together with their documented protein stability index.
B1: DCTD (parent)
chain: VKGCSMYVALFPCNECAKLIIQAG

Variants of: B1
Assay: protein stability index of a GFP-peptide fusion (GPS, HEK-293T) (PSI 1-6); higher = more stable;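 further: lentivirally expressed fusions sorted by FACS into six bins by GFP to DsRed ratio, PSI derived from sequencing read proportions per bin multiplied by bin number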
Conditions: c terminus: a fixed tail appended

Completed entries (count: 3):
[[record]]
construct_sequence = "MKGCSMYVALFPCNECAKLIIQAG [V1M]"
result = 3.04

[[record]]
construct_sequence = "VKGCSMYVALFPCNECTKLIIQAG [A17T]"
result = 3.02

[[record]]
construct_sequence = "VKGCSMYVALFPCNICAKLIIQAG [E15I]"
result = 3.06


Continue with the next variant.
Ask | Indicate its recorded protein stability index; the variant in question is VKGCSMYMALFPCNECAKLIIQAG [V8M]
Reply | 2.92
